Observed Cellular Toxicity Assay MTT LD50 values for SKW3 cells are listed in what follows.

# COMPOUND, MEASURED_ATTRIBUTE, OBS_VALUE
data = [
    ("CN1C(=O)N(c2cc(Cl)cc(Cl)c2)C(=O)C1(C)Cc1ccc([N+](=O)[O-])cc1 (stereo not shown) [Example 157]", "Cellular Toxicity Assay MTT LD50", ">390 µM"),
    ("O=C1NC(Cc2ccc([N+](=O)[O-])cc2)C(=O)N1c1cc(Cl)cc(Cl)c1 (stereo not shown) [Example 7]", "Cellular Toxicity Assay MTT LD50", "250 to 500 µM"),
    ("C[C@]1(Cc2ccc(C(=O)c3ccccc3)cc2)NC(=O)N(c2cc(Cl)cc(Cl)c2)C1=O [Example 215]", "Cellular Toxicity Assay MTT LD50", "100 to 200 µM"),
]

# input compound: C[C@H]1C(=O)N(c2cc(Cl)cc(Cl)c2)C(=O)[C@]1(C)Cc1ccc(Br)cc1 [Example 72] ; wanted: its Cellular Toxicity Assay MTT LD50
>363 µM

----------
Observed Cellular Toxicity Assay MTT LD50 values for SKW3 cells are listed in what follows.

Consider the following illustrative entries.
# COMPOUND, MEASURED_ATTRIBUTE, OBS_VALUE
measured = [
    ("CC(=O)N1C(=O)N(c2cc(Cl)cc(Cl)c2)C(=O)[C@@]1(C)Cc1ccc([N+](=O)[O-])cc1 [Example 135]", "Cellular Toxicity Assay MTT LD50", ">400 µM"),
    ("C[C@]1(Cc2ccccc2)NC(=O)N(c2cc(Cl)cc(Cl)c2)C1=O [Example 265]", "Cellular Toxicity Assay MTT LD50", "130 to 250 µM"),
    ("CN1C(=O)N(c2cc(Cl)cc(Cl)c2)C(=O)C1(C)Cc1ccc(C#N)cc1 (stereo not shown) [Example 151]", "Cellular Toxicity Assay MTT LD50", ">410 µM"),
]

Please find the next compound below.
Record CN1C(=O)N(c2cc(Cl)cc(Cl)c2)C(=O)[C@@]1(C)Cc1ccc([N+](=O)[O-])cc1 [Example 134] : what is its Cellular Toxicity Assay MTT LD50 with SKW3 cells?
>250 µM

----------
For each record, write down the corresponding Kd.
- SYSTEM_NAME: interaction of ICAM-1 with the Leukointegrin CD18/CD11a (LFA-1) (Homo sapiens, UniProt P05107+P20701)
- Construct: endogenous in cells; sICAM-1: made in house, secreted from transfected CHO DUX cells
- Sequence (P20701 26-1170): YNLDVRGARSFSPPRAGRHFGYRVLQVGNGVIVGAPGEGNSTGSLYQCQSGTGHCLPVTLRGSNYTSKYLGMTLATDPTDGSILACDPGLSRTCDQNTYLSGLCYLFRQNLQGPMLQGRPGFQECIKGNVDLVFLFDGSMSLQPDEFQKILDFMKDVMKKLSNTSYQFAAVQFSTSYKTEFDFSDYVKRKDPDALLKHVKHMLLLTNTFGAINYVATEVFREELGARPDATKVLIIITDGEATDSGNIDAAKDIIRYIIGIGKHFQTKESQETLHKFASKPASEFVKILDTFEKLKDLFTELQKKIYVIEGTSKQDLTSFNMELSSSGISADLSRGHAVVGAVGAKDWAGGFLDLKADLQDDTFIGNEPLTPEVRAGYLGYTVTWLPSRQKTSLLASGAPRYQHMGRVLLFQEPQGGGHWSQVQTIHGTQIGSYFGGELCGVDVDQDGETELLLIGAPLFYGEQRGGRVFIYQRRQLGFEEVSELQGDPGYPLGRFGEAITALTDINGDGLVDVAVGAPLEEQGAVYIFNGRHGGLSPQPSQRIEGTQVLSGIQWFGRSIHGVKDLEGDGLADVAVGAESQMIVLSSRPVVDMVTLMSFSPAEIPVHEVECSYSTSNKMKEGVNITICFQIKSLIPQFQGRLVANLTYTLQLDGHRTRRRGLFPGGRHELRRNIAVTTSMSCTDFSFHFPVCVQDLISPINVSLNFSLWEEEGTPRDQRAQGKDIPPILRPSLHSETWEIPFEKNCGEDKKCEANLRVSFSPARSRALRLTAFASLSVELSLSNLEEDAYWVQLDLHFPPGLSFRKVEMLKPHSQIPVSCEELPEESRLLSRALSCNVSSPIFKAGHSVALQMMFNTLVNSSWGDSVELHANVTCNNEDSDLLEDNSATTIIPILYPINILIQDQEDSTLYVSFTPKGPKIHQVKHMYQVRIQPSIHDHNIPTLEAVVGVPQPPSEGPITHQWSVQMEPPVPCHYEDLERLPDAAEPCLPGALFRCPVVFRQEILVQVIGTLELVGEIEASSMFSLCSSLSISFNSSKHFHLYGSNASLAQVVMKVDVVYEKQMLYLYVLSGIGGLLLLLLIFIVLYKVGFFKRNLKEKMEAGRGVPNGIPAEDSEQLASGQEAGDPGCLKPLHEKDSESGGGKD
- Sequence (P05107 23-769): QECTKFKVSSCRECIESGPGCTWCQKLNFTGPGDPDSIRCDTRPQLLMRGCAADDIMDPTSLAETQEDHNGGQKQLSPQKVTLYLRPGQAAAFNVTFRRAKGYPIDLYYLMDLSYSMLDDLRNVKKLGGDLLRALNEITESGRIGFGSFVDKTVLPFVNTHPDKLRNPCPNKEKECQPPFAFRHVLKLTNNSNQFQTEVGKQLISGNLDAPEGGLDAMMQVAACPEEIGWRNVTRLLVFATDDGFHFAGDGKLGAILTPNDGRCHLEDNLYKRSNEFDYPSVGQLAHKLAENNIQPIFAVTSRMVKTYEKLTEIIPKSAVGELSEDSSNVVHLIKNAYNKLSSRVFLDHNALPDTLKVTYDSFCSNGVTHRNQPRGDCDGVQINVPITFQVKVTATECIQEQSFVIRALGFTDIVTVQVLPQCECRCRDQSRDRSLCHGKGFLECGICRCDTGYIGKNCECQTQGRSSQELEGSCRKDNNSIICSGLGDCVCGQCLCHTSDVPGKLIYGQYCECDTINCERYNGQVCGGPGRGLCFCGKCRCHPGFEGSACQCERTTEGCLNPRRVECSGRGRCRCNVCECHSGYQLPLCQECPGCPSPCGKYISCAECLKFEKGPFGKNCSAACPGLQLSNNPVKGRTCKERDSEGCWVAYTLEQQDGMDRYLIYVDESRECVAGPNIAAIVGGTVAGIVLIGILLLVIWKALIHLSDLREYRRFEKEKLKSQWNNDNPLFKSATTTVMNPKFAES
- ASSAY_NOTES: Assay to determine inhibition of LFA-1 binding to ICAM-1 (immunopurified LFA-1 on plate-bound sICAM-1, ELISA readout)
- TEST_CONTEXT: values marked e approximated from incomplete dose-response curve

# MOLECULE, Kd
records = [
    ("COc1c(F)c(F)c(CC2(C)NC(=O)N(c3cc(Cl)cc(Cl)c3)C2=O)c(F)c1F (stereo not drawn) [Example 61]", "2350 nM"),
    ("CC1(Cc2ccc(-c3ccccc3)cc2)NC(=O)N(c2cc(Cl)cc(Cl)c2)C1=O (stereo not drawn) [Example 49]", "260 nM"),
    ("Cc1cc(C)cc(CC2(C)C(=O)N(c3cc(Cl)cc(Cl)c3)C(=O)N2C)c1 (stereo not drawn) [Example 162]", "1050 nM"),
    ("CC(C)N1C(=O)N(c2cc(Cl)cc(Cl)c2)C(=O)C1Cc1ccc(Br)cc1 (stereo not drawn) [Example 34]", "130 nM"),
    ("C[C@H]1C(=O)N(c2cc(Cl)cc(Cl)c2)C(=O)[C@]1(C)Cc1ccc(Br)cc1 [Example 72]", "60 nM"),
    ("CCOc1ccccc1-c1ccc(CC2(C)NC(=O)N(c3cc(Cl)cc(Cl)c3)C2=O)cc1 (stereo not drawn) [Example 193]", "290 nM"),
]

Could I get Kd for every one of these entries?
1. Cc1cc(C)cc(CC2(C)NC(=O)N(c3cc(Cl)cc(Cl)c3)C2=O)c1 (stereo not drawn) [Example 50]
2. CN1C(=O)N(c2cc(Cl)cc(Cl)c2)C(=O)C1C(O)c1ccccc1 (stereo not drawn) [Example 178]
3. C[C@@H]1C(=O)N(c2cc(Cl)cc(Cl)c2)C(=O)[C@]1(C)Cc1ccc(Br)cc1 [Example 73]
4. COC(=O)c1ccc(CC2(C)NC(=O)N(c3cc(Cl)cc(Cl)c3)C2=O)cc1 (stereo not drawn) [Example 46]
5. COc1ccc(CC2(C)C(=O)N(c3cc(Cl)cc(Cl)c3)C(=O)N2C)cc1 (stereo not drawn) [Example 166]
6. CC1(Cc2ccc(C(C)(C)C)cc2)NC(=O)N(c2cc(Cl)cc(Cl)c2)C1=O (stereo not drawn) [Example 52]

~17000 nM
1170 nM
340 nM
2260 nM
280 nM
1590 nM

Could I get Kd for every one of these entries?
1. O=C1C(Cc2ccccc2)N(Cc2ccccc2)C(=O)N1c1cc(Cl)cc(Cl)c1 (stereo not drawn) [Example 84]
2. CC1(Cc2ccc(C(F)(F)F)c(F)c2F)NC(=O)N(c2cc(Cl)cc(Cl)c2)C1=O (stereo not drawn) [Example 67]
3. C[C@H]1C(=O)N(c2cc(Cl)cc(Cl)c2)C(=O)[C@]1(C)Cc1ccccc1 [Example 74]
4. Cc1cccc(C)c1CC1(C)NC(=O)N(c2cc(Cl)cc(Cl)c2)C1=O (stereo not drawn) [Example 38]
5. CN1C(=O)N(c2cc(Cl)c(F)c(Cl)c2)C(=O)[C@@]1(C)Cc1ccc(Br)cc1 [Example 124]

["420 nM", "3540 nM", "670 nM", "1150 nM", "30 nM"]

Could I get Kd for every one of these entries?
1. CN(C)C(=O)CN1C(=O)N(c2cc(Cl)cc(Cl)c2)C(=O)[C@@]1(C)Cc1ccc(Br)cc1 [Example 107]
2. C[C@@]1(Cc2ccccc2)NC(=O)N(c2cc(Cl)cc(Cl)c2)C1=O [Example 2]
3. CCC1(Cc2ccccc2)C(=O)N(c2cc(Cl)cc(Cl)c2)C(=O)N1C (stereo not drawn) [Example 93]
4. C[C@@]1(Cc2ccc(Br)cc2)C(=O)N(c2cc(Cl)cc(Cl)c2)C(=O)N1C[C@@H](O)c1ccccc1 [Example 133]
5. O=C1NC(Cc2ccc([N+](=O)[O-])cc2)C(=O)N1c1cc(Cl)cc(Cl)c1 (stereo not drawn) [Example 7]
6. C[C@@H](c1ccccc1)[C@@H]1C(=O)N(c2cc(Cl)cc(Cl)c2)C(=O)N1C [Example 86]
7. CC(=O)CN1C(=O)N(c2cc(Cl)cc(Cl)c2)C(=O)[C@@]1(C)Cc1ccc(Br)cc1 [Example 117]

490 nM
14400 nM
1270 nM
150 nM
1330 nM
530 nM
1090 nM

Could I get Kd for every one of these entries?
1. CC1(Cc2ccccc2)NC(=O)N(c2cc(C(F)(F)F)cc(C(F)(F)F)c2)C1=O (stereo not drawn) [Example 16]
2. CCCC1(Cc2ccccc2)C(=O)N(c2cc(Cl)cc(Cl)c2)C(=O)N1C (stereo not drawn) [Example 94]
3. CC(C)N1C(=O)N(c2cc(Cl)cc(Cl)c2)C(=O)C1(C)Cc1ccc(Br)cc1 (stereo not drawn) [Example 141]
4. CC1(Cc2ccc(-c3ccccc3Cl)cc2)NC(=O)N(c2cc(Cl)cc(Cl)c2)C1=O (stereo not drawn) [Example 191]
5. CCCN1C(=O)N(c2cc(Cl)cc(Cl)c2)C(=O)C1(C)Cc1ccc(Br)cc1 (stereo not drawn) [Example 106]

["850 nM", "740 nM", "220 nM", "140 nM", "140 nM"]

----------
- SYSTEM_NAME: interaction of ICAM-1 with the Leukointegrin CD18/CD11a (LFA-1) (Homo sapiens, UniProt P05107+P20701)
- Construct: endogenous in cells; sICAM-1: made in house, secreted from transfected CHO DUX cells
- ASSAY_NOTES: Assay to determine inhibition of LFA-1 binding to ICAM-1 (immunopurified LFA-1 on plate-bound sICAM-1, ELISA readout)
- TEST_CONTEXT: values marked e approximated from incomplete dose-response curve
Flag rule - Kd less than 500 nM flags T; the remaining entries get F.

Look over these answered cases.
# MOLECULE, CLASS_LABEL
rows = [
    ("CC1(Cc2ccc(Br)cc2)NC(=O)N(c2cc(Cl)cc(Cl)c2)C1=S (stereo not shown)", "T"),
    ("CN1C(=O)N(c2cc(Cl)cc(Cl)c2)C(=O)C1Cc1ccccc1 (stereo not shown)", "F"),
    ("CC(=O)N1C(=O)N(c2cc(Cl)cc(Cl)c2)C(=O)[C@@]1(C)Cc1ccc(C#N)cc1", "T"),
    ("C[C@]1(Cc2c[nH]c3ccccc23)NC(=O)N(c2cc(Cl)cc(Cl)c2)C1=O", "F"),
    ("CN1C(=O)N(c2cc(Cl)cc(Cl)c2)C(=O)C1(C)Cc1ccccc1Br (stereo not shown)", "F"),
]

Quick check: Kd of `COc1cccc(CN2C(=O)N(c3cc(Cl)cc(Cl)c3)C(=O)[C@@]2(C)Cc2ccc(Br)cc2)n1` under 500 nM?
T

// next record `CN1C(=O)N(c2cc(Cl)cc(Cl)c2)C(=O)[C@@]1(C)Cc1ccc([N+](=O)[O-])cc1`
T

// next record `COc1ccccc1CN1C(=O)N(c2cc(Cl)cc(Cl)c2)C(=O)[C@@]1(C)Cc1ccc(Br)cc1`
F

// next record CN1C(=O)N(c2cc(Cl)cc(Cl)c2)C(=O)C1(C)Cc1ccccc1C#N (stereo not shown)
F

// next record CCCN1C(=O)N(c2cc(Cl)cc(Cl)c2)C(=O)C1(C)Cc1ccccc1 (stereo not shown)
F

// next record `CN(C)CCN1C(=O)N(c2cc(Cl)cc(Cl)c2)C(=O)[C@@]1(C)Cc1ccc(Br)cc1`
T

// next record COc1ccccc1-c1ccc(CC2(C)NC(=O)N(c3cc(Cl)cc(Cl)c3)C2=O)cc1 (stereo not shown)
T

// next record `CN1C(=O)N(c2cc(Cl)cc(Cl)c2)C(=O)[C@@]1(C)Cc1cc(Br)cc(Br)c1`
T

// next record CC(C)(C)C(=O)c1ccc(CC2(C)NC(=O)N(c3cc(Cl)cc(Cl)c3)C2=O)cc1 (stereo not shown)
F

// next record CCOc1ccc(-c2ccc(CC3(C)NC(=O)N(c4cc(Cl)cc(Cl)c4)C3=O)cc2)cc1 (stereo not shown)
F
